Biological target: KIT (Homo sapiens, UniProt P10721)
Construct: purchased Carna Biosciences
Sequence (P10721 26-976): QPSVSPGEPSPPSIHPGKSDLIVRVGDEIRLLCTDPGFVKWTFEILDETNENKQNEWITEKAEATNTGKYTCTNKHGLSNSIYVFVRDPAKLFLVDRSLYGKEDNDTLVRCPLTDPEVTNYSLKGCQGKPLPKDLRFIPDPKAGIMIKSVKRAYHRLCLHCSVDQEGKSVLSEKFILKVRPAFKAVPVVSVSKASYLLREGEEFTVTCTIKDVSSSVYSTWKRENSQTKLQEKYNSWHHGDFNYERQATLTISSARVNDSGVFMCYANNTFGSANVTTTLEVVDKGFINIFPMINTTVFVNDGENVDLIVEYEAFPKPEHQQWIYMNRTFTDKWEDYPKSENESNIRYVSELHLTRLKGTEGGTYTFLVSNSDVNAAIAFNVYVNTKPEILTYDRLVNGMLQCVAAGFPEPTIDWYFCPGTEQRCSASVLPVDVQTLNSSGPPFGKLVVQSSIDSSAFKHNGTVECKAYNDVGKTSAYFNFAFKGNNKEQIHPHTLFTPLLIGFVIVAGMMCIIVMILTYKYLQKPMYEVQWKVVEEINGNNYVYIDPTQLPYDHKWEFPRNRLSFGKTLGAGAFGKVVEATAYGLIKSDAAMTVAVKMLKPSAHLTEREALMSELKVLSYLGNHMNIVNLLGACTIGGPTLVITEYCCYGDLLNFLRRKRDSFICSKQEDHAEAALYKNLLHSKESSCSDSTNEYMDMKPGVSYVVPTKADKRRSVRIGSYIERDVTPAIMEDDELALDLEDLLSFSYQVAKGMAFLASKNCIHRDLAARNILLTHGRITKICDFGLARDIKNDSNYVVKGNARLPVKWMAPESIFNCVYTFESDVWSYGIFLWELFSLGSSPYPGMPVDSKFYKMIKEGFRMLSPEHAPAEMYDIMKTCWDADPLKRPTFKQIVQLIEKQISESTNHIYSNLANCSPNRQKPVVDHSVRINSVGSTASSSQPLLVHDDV
Assay: Off-chip Mobility Shift Assay (MSA) kinase inhibition
Format: biochemical
Settings: inhibitor concentration 0.1 μM
inhibition at 0.1 µM values for the compounds below.
MEASURED QUANTITY: inhibition at 0.1 µM

>  <COMPOUND>
O=C(c1c(F)ccc(NS(=O)(=O)CCCO)c1F)c1c[nH]c2ncc(-c3ccc(Cl)cc3)cc12 [200-17]

>  <VALUE MEASURED>
> 50%

$$$$
>  <COMPOUND>
O=C(c1c(F)ccc(NS(=O)(=O)CC(O)CO)c1F)c1c[nH]c2ncc(-c3ccc(Cl)cc3)cc12 (stereo not shown) [200-73]

>  <VALUE MEASURED>
< 30%

$$$$
>  <COMPOUND>
CC(=O)CS(=O)(=O)Nc1ccc(F)c(C(=O)c2c[nH]c3ncc(-c4ccc(Cl)cc4)cc23)c1F [200-117]

>  <VALUE MEASURED>
< 30%

$$$$
>  <COMPOUND>
CC(O)CS(=O)(=O)Nc1ccc(F)c(C(=O)c2c[nH]c3ncc(-c4ccc(Cl)cc4)cc23)c1F (stereo not shown) [200-115]

>  <VALUE MEASURED>
< 30%

$$$$
